Target of assay: UGT1A1 (Homo sapiens, UniProt P22309)
Sequence (P22309 26-533): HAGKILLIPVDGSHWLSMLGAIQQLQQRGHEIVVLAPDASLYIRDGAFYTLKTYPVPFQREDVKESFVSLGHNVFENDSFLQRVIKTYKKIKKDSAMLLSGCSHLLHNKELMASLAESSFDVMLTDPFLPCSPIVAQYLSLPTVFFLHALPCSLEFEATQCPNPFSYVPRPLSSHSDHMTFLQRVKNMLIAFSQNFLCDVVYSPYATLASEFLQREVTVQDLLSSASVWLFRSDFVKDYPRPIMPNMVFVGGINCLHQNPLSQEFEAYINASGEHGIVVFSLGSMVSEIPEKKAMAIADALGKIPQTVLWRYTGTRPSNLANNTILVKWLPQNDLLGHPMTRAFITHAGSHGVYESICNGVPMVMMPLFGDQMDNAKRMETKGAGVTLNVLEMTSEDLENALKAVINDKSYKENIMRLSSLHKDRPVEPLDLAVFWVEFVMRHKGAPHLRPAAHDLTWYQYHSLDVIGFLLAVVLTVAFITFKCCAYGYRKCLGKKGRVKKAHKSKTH
Experimental details: Inhibition of raloxifene glucuronidation by recombinant UGT1A1 Supersomes
Reported conditions: human, Supersomes with recombinant human UGT1A1, pH 7.5, probe raloxifene 50 μM, formation of glucuronide G2, % of control metabolism, raloxifene G2, UGT1A1; inhibitor 10 μM
Quantity: activity at 15 min, 10 µM (%)
Unit % implied. Number only.

Recorded results for 2 compounds are shown here.
{"Compound": "CC/C(=C(/CC)c1ccc(O)cc1)c1ccc(O)cc1 [Diethylstilbestrol, reference compound]", "Units": "%", "activity at 15 min, 10 µM": 72}
{"Compound": "CCCCCCCCOC(=O)c1cc(O)c(O)c(O)c1 [Octyl gallate]", "Units": "%", "activity at 15 min, 10 µM": 75}

Exercise: Request: activity at 15 min, 10 µM, test system UGT1A1 (Homo sapiens, UniProt P22309), entry O=C(OC[C@H]1O[C@@H](OC(=O)c2cc(O)c(O)c(OC(=O)c3cc(O)c(O)c(O)c3)c2)[C@H](OC(=O)c2cc(O)c(O)c(OC(=O)c3cc(O)c(O)c(O)c3)c2)[C@@H](OC(=O)c2cc(O)c(O)c(OC(=O)c3cc(O)c(O)c(O)c3)c2)[C@@H]1OC(=O)c1cc(O)c(O)c(OC(=O)c2cc(O)c(O)c(O)c2)c1)c1cc(O)c(O)c(OC(=O)c2cc(O)c(O)c(O)c2)c1
Solution: 17
